From: PubChem BioAssay (NCATS)

Tested on: Zika virus NS2B-NS3 protease
ASSAY DETAILS: Primary screen GU AMC qHTS for Zika virus inhibitors (AID 1347154);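 further: 0% = no-inhibitor control and -100% = no-enzyme control; nearly all actives have a fitted effect of over 70% in size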
CONDITION DESCRIPTION: Zika NS2B-NS3 unlinked protease, AMC fluorogenic substrate; series mostly up to 54.1 µM
Records with an inconclusive call do not appear. Calls of active or inactive are those of the source. The call rests on the fitted dose curve; in most records, active means well fitted inhibition curve with a large enough effect; inconclusive means small, poorly fitted or top-dose-only effect; inactive means flat fitted curve, though single readings scatter.
MEASURED METRIC: activity change, negative = inhibition

Answered examples (4):
CCOC(=O)[C@H](CCc1ccccc1)N[C@@H](C)C(=O)N1C(=O)N(C)C[C@H]1C(=O)O: inactive
CSc1ccc2c(c1)N(CCC1CCCCN1C)c1ccccc1S2 (stereo unspecified): inactive
COc1ccc2cc1Oc1cc3c(cc1OC)CC[N+](C)(C)[C@H]3Cc1ccc(cc1)Oc1c(OC)c(OC)cc3c1[C@@H](C2)[N+](C)(C)CC3: inactive
Nc1ccc(S(=O)(=O)Nc2nccs2)cc1: inactive

Report activity change, negative = inhibition for every entry below.
1. O=C(O)[C@@H]1CSCN1
2. C/C(=C(\CCOP(=O)(O)O)SC(=O)c1ccccc1)N(C=O)Cc1cnc(C)nc1N

a:
1: inactive; 2: 0.0847% [at 4.99 µM] (inactive)
